Assay: Kinetic solubility of compound in PBS at pH 7.4 measured after 2 hrs by turbidimetric measurement
Details: read-out: Kinetic_solubility
MEASURED PARAMETER: solubility kinetic at 2 h (µM)

(a) CCC(=O)c1ccc(-c2cn(-c3ccc(CCN4CCc5cc(OC)c(OC)cc5C4)cc3)nn2)cc1NC(=O)c1ccc(OC)cn1
(b) CCC(=O)c1ccc(-c2cn(-c3ccc(CCN4CCc5cc(OC)c(OC)cc5C4)cc3)nn2)cc1NC(=O)c1cc(=O)c2ccccc2o1
Lower solubility kinetic at 2 h: a or b ? Select an item and report its label.
a

(a) Cc1ccc(-c2cn(CCO)nn2)c(NC(=O)c2cc(=O)c3ccccc3o2)c1
(b) CCC(=O)c1ccc(-c2cn(CCN3CCOCC3)nn2)cc1NC(=O)c1cc(=O)c2ccccc2o1
Name the one with the greater solubility kinetic at 2 h value, either a or b as given. Field: selected label. Fill in the label of the entry you choose.
b
(b: 10 µM, a: 3 µM)

(A) CCC(=O)c1ccc(-c2cn(-c3ccc(CCN4CCc5cc(OC)c(OC)cc5C4)cc3)nn2)cc1NC(=O)c1cccc(N)n1
(B) Cc1ccc(-c2cn(CCN3CCCC3)nn2)c(NC(=O)c2cc(=O)c3ccccc3o2)c1
(C) CCC(=O)c1ccc(-c2cn(-c3ccc(CCN4CCc5cc(OC)c(OC)cc5C4)cc3)nn2)cc1NC(=O)c1cccc(Cl)n1
(D) CCC(=O)c1ccc(-c2cn(-c3ccc(CCN4CCc5cc(OC)c(OC)cc5C4)cc3)nn2)cc1NC(=O)c1cccc(C)n1
(E) CCC(=O)c1ccc(-c2cn(CCN3CCCC3)nn2)cc1NC(=O)c1cc(=O)c2ccccc2o1
Sort by solubility kinetic at 2 h, descending. Return the labels ranked in the requested order, please.
E, A, B, D, C

(a) CCC(=O)c1ccc(-c2cn(-c3ccc(CCN4CCc5cc(OC)c(OC)cc5C4)cc3)nn2)cc1NC(=O)c1cc2ccccc2o1
(b) Cc1ccc(-c2cn(CCN3CCOCC3)nn2)c(NC(=O)c2cc(=O)c3ccccc3o2)c1
Between item a and item b , which reported solubility kinetic at 2 h is smaller? Please reply using the label of the selected record.
a

(I) COC(=O)c1ccc(Br)cc1NC(=O)c1cc(=O)c2ccccc2o1
(II) CCC(=O)c1ccc(-c2cn(-c3ccc(CCN4CCc5cc(OC)c(OC)cc5C4)cc3)nn2)cc1NC(=O)c1cccc(OC)n1
Given the listed records, identify the one among I and II with higher solubility kinetic at 2 h. Your answer should be the label attached to the chosen record.
I

(a) CCC(=O)c1ccc(-c2cn(CC(=O)O)nn2)cc1NC(=O)c1cc(=O)c2ccccc2o1
(b) CCC(=O)c1ccc(-c2cn(-c3ccc(CCN4CCc5cc(OC)c(OC)cc5C4)cc3)nn2)cc1NC(=O)c1ccc2c(n1)CCCC2
Lower value for measured solubility kinetic at 2 h? Options: a , b Returns: label corresponding to the selected item.
b
